// provenance: patent US20110118131A1

- target.under.test: T1, IL-1beta (UniProt P01584 117-269)
- T1 construct: also called IL-1β
- assay.explanation: Biacore
observable: fold difference in affinity vs parental (fold)
Respond with the bare value in fold.

Briefly, fold difference in affinity vs parental measured for XPA23 Fab, heavy chain M57F (Fab, V domains shown) VH: EVQLLESGGGLVQPGGSLRLSCAASGFTFSKYFMFWVRQAPGKGLEWVSVISPSGGFTRYADSVKGRFTISRDNSKNTLYLQMNSLRAEDTAVYYCARVGYGGNSDYWGQGTLVTVSS VL: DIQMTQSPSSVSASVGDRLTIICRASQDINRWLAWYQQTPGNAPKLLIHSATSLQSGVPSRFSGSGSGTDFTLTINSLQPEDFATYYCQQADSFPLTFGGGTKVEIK : 1.03

Briefly, fold difference in affinity vs parental measured for XPA23 Fab, heavy chain R59F (Fab, V domains shown) VH: EVQLLESGGGLVQPGGSLRLSCAASGFTFSKYFMFWVRQAPGKGLEWVSVISPSGGMTFYADSVKGRFTISRDNSKNTLYLQMNSLRAEDTAVYYCARVGYGGNSDYWGQGTLVTVSS VL: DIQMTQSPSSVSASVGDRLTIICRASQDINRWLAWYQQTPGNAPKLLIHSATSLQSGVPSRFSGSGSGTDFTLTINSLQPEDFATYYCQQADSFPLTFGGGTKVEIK : 0.92
